- target.desc: wild-type human cardiac sodium channel, hNav1.5 (Homo sapiens, UniProt Q14524)
- Sequence (Q14524 whole entry): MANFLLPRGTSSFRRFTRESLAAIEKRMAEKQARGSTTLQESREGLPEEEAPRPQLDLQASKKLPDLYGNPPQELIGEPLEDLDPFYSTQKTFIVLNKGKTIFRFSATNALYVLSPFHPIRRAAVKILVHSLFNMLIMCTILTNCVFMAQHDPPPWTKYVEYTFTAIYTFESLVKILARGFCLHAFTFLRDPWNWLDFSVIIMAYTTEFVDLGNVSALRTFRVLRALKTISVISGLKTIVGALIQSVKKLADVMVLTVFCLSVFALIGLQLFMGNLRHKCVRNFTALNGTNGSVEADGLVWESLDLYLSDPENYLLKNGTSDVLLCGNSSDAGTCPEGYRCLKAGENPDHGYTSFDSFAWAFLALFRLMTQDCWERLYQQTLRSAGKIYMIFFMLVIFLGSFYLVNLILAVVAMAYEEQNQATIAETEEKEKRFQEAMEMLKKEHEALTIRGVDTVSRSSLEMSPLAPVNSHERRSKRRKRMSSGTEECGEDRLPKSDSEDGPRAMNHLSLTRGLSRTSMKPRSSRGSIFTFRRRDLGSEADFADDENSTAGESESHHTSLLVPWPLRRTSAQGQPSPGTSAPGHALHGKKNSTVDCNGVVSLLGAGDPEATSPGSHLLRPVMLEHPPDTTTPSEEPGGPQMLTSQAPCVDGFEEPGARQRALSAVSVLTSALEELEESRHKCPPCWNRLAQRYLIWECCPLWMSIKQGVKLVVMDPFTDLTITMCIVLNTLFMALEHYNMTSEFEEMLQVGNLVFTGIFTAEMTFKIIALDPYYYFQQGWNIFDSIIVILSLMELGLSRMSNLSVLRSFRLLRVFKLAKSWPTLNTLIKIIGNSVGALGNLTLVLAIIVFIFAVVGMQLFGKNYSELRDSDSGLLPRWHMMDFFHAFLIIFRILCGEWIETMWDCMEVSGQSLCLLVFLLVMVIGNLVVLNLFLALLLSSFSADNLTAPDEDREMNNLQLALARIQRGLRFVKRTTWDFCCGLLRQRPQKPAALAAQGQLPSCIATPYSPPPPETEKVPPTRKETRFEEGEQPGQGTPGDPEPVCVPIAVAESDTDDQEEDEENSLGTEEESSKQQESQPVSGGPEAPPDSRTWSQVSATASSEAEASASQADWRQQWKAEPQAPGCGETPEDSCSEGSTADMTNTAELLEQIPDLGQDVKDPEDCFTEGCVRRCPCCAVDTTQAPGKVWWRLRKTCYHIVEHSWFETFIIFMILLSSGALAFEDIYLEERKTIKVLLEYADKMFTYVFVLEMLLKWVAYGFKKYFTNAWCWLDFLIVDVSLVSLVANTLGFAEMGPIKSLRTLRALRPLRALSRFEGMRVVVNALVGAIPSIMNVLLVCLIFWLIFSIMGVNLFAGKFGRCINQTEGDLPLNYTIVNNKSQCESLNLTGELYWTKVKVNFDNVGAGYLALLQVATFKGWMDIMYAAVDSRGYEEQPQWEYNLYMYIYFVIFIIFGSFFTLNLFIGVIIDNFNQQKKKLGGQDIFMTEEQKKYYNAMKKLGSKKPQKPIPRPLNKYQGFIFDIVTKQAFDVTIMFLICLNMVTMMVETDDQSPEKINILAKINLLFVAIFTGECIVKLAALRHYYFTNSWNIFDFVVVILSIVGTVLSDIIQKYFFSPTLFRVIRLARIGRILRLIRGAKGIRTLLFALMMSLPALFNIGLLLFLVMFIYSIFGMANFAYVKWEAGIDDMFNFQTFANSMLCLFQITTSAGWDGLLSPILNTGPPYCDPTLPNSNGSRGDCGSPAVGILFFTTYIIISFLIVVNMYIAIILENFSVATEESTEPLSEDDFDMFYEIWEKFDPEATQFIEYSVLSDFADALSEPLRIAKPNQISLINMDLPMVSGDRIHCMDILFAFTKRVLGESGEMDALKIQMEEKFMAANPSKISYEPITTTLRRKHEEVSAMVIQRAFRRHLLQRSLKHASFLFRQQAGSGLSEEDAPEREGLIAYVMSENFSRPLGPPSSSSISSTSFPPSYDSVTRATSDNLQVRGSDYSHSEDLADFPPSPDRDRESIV
- test.description: Peak INa screening assay (tonic block TB and use-dependent block UDB of peak sodium current)
- Assay type: cell-based
- condition.info: tonic block; compound at 10 μM; read-out: Tonic Peak INa % blk
Assignment: determine reported inhibition at 10 µM for the given compounds.

compound | value.observed
CC1=C(C(=O)OCc2ccccc2)C(c2cc3ccccc3o2)n2nnnc2N1 (stereo not drawn) | 23.8%
CC1=C(C(=O)OC(C)Cc2ccccc2)C(c2cccc3ccccc23)n2nnnc2N1 (stereo not drawn) | 7.2%
N#CC1=C(N)OC2=C(C(=O)CC(c3ccccc3)C2)C1c1ccsc1 (stereo not drawn) | 2.7%

Value sought for every listed compound: inhibition at 10 µM.
1. COC(=O)C1=C(C)Nc2nnnn2C1c1c(Br)sc2ccccc12 (stereo not drawn)
2. CCOC(=O)C1=C(C)NC(C)=C(C(=O)OCC)C1c1ccsc1

["24%", "0%"]

Provide reported inhibition at 10 µM for each item, in the same order as listed.
1. CCOC(=O)C1=C(C)Nc2nnnn2C1c1cccc2ccccc12 (stereo not drawn)
2. CC1=C(C(=O)OCc2ccccc2)C(c2ccccc2-c2cccc(NS(C)(=O)=O)c2)n2nnnc2N1 (stereo not drawn)
3. CC1=C(C(=O)OCc2ccccc2)C(c2nccs2)c2cn[nH]c2N1 (stereo not drawn)
4. COc1ccc(C2C(C(=O)OCc3ccccc3)=C(C)Nc3nnnn32)c(C#N)c1 (stereo not drawn)
5. COc1cc(Cl)ccc1COC(=O)C1=C(C)Nc2nnnn2C1c1c(Cl)cccc1Cl (stereo not drawn)
6. CC1=C(C(=O)OCc2ccccc2)C(c2cc(C)c(C)s2)n2nnnc2N1 (stereo not drawn)
7. CCOC(=O)C1=C(C)NC(C)=C(C(=O)OCC)C1c1csc2ccccc12

["0%", "17.2%", "26.3%", "-1.6%", "20.1%", "21.6%", "17.2%"]

Could you report inhibition at 10 µM for every entry in the following list?
1. CC1=C(C(=O)OCc2ccccc2)C(c2cccs2)n2nnnc2N1 (stereo not drawn)
2. CC1=C(C(=O)OCc2ccccc2)C(c2sccc2-c2ccccc2)n2nnnc2N1 (stereo not drawn)
3. CC1=C(C(=O)O[C@@H](C)c2ccccc2)C(c2cccc3ccccc23)n2nnnc2N1 (stereo partly drawn)
4. CC1=C(C(=O)OCc2ccccc2)C(c2sccc2Br)n2nnnc2N1 (stereo not drawn)

9.9%
17.7%
58.6%
25.9%

Provide inhibition at 10 µM for all items below, preserving their order.
1. CC1=C(C(=O)OCC2CC2)C(c2c(Br)sc3ccccc23)n2nnnc2N1 (stereo not drawn)
2. CCOC(=O)C1=C(C)Nc2nc(C#N)c(C#N)n2C1c1cccc2ccccc12 (stereo not drawn)
3. CC1=C(C(=O)OCc2ccccc2)C(c2ccc(N(C)C)c3ccccc23)c2cn[nH]c2N1 (stereo not drawn)

1. 60.1%
2. 19.1%
3. 11.3%
